IC50 overview
target: EGFR Del19/C797S (Homo sapiens, UniProt P00533, C797S/DEL746-750); assay: Biochemical EGFR kinase inhibition assay (Lance Ultra TR-FRET), double mutant del19/C797S; settings: IC50 Del19/C797S (nM), 100 μM ATP
Sequence (P00533 with tags, fused parts or gaps DEL746-750/C797S): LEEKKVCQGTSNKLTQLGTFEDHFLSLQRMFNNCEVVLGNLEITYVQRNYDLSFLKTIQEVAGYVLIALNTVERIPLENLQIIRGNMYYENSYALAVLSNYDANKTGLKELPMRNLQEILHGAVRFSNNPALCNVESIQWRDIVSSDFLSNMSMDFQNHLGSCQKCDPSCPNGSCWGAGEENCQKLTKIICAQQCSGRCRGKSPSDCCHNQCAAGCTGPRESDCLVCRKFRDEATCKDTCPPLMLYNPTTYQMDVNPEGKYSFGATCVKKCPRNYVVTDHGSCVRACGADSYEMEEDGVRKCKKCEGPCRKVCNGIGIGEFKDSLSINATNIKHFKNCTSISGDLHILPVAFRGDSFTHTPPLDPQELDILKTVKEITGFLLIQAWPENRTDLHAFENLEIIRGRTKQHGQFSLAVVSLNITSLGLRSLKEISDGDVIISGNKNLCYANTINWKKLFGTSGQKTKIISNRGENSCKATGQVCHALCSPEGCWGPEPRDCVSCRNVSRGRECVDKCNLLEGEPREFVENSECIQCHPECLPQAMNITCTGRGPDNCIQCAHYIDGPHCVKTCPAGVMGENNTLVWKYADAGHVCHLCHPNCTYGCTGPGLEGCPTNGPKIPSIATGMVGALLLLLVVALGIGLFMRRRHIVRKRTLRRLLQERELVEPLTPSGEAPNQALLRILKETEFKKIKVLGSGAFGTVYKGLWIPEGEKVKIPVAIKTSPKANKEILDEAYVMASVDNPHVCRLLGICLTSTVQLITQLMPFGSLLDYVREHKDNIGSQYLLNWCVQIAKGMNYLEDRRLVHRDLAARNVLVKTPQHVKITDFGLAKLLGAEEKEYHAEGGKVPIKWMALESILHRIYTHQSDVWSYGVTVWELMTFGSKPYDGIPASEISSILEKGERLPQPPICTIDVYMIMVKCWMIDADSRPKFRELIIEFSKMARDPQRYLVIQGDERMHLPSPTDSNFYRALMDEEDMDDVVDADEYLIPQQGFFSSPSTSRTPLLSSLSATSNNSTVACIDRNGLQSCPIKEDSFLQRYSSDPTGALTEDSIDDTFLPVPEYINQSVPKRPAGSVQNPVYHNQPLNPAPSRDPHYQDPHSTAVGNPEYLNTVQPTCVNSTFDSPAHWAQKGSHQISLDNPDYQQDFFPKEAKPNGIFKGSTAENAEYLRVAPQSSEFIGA
Note: unit nM is implicit; provide only the numeric part.

// assay EGFR Del19/C797S (Homo sapiens, UniProt P00533, C797S/DEL746-750), entry CC1(CO)CCN(c2cc(Nc3ccnc(-c4cnn(S(=O)(=O)C5CC5)c4)n3)ncc2C#Cc2cccnc2)CC1 , IC50 value = 0.5

---

target: EGFR L858R/C797S (Homo sapiens, UniProt P00533, C797S/L858R); test: Biochemical EGFR kinase inhibition assay (Lance Ultra TR-FRET), double mutant L858R/C797S; details: ATP at Km; read-out: IC50 L858R/C797S (nM), Km ATP
Sequence (P00533 25-1210 C797S/L858R): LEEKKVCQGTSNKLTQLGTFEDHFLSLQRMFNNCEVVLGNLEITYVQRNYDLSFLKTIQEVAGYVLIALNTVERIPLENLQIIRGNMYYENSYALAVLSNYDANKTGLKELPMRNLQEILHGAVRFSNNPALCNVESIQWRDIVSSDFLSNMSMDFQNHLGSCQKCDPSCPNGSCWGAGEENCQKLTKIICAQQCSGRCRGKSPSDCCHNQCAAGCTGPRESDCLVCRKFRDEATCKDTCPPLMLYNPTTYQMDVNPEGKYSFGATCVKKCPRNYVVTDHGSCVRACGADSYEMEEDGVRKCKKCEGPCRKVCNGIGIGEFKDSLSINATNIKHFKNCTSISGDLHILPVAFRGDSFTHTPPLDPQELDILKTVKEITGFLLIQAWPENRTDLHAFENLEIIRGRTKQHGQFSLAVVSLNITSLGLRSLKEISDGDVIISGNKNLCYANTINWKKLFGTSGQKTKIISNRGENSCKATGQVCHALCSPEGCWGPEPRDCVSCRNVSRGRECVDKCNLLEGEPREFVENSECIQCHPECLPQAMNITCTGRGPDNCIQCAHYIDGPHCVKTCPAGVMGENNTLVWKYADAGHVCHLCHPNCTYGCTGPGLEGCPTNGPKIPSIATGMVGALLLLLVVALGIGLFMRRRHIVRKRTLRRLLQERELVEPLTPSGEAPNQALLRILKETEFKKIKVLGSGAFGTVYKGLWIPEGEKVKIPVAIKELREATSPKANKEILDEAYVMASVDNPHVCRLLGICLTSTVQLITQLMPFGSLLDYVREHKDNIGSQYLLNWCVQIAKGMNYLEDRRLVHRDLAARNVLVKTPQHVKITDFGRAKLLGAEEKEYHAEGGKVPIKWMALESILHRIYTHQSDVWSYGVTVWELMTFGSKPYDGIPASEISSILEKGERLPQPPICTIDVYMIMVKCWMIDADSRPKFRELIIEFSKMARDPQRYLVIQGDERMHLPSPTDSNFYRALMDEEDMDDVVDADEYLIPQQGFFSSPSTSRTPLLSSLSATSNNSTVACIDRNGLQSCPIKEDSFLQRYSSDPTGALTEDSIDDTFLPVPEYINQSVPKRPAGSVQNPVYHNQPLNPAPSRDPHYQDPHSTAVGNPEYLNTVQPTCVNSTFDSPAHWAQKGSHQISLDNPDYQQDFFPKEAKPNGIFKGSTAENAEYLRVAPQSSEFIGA
Structures can show the parent of a compound that is named as a salt.
Output schema: class label derived from IC50. Mapping: L: < 2 nM; M: ≥ 2 nM and < 8 nM; H: ≥ 8 nM

Record excerpt, results attached:
{"molecule": "C[C@]1(O)CC[C@@H](Nc2cc(Nc3ccnc(-c4cnn(S(=O)(=O)C5CC5)c4)n3)ncc2C#Cc2cnn(CC(F)F)c2)CC1 [Example 323]", "category.label": "H"}
{"molecule": "O=S(=O)(C1CC1)n1cc(-c2nccc(Nc3cc(N[C@H]4CC[C@@H](O)CC4)c(C#CC4(O)CCCC4)cn3)n2)cn1 [Example 176]", "category.label": "H"}
{"molecule": "CC1(CO)CCN(c2cc(Nc3ccnc(-c4cnn(S(=O)(=O)C5CC5)c4)n3)ncc2C#CC2(O)CCCC2)CC1 [Example 177]", "category.label": "M"}
{"molecule": "CC1(CO)CCN(c2cc(Nc3ccnc(-c4cnn(S(=O)(=O)C5CC5)c4)n3)ncc2C#Cc2cnc(CN3CCOCC3)s2)CC1 [Example 192]", "category.label": "M"}
{"molecule": "CC1(CO)CCN(c2cc(Nc3ccnc(-c4cnn(S(=O)(=O)C5CC5)c4)n3)ncc2C#CC2(O)CCOCC2)CC1 [Example 195]", "category.label": "M"}
{"molecule": "CC1(CO)CCN(c2cc(Nc3ccnc(-c4cnn(S(=O)(=O)C5CC5)c4)n3)ncc2C#Cc2cnn(C3COC3)c2)CC1 [Example 245]", "category.label": "L"}
{"molecule": "CN(C)CC1(F)CCN(c2cc(Nc3ccnc(-c4cnn(S(=O)(=O)C5CC5)c4)n3)ncc2C#Cc2cnn(C)c2)CC1 [Example 293, formate]", "category.label": "M"}
{"molecule": "CC1(CO)CCN(c2cc(Nc3ccnc(-c4cnn(S(=O)(=O)C5CC5)c4)n3)ncc2C#Cc2ccccn2)CC1 [Example 259]", "category.label": "L"}
{"molecule": "CN(C)Cc1cccc(C#Cc2cnc(Nc3ccnc(-c4cnn(S(=O)(=O)C5CC5)c4)n3)cc2N2CCC(C)(CO)CC2)c1 [Example 255]", "category.label": "L"}
{"molecule": "O=S(=O)(C1CC1)n1cc(-c2nccc(Nc3cc(N4CCC5(CCCO5)CC4)c(C#Cc4cccnc4)cn3)n2)cn1 [Example 282]", "category.label": "M"}

Query: // return the class label for O=S(=O)(C1CC1)n1cc(-c2nccc(Nc3cc(NC[C@H]4CC[C@@H](O)C4)c(C#Cc4cnn(C(F)F)c4)cn3)n2)cn1 [Example 306]
Result: M

Query: // return the class label for O=S(=O)(C1CC1)n1cc(-c2nccc(Nc3cc(N[C@H]4CCC[C@H](O)C4)c(C#Cc4ccc(CN5CCOCC5)cc4)cn3)n2)cn1 [Example 161]
Result: H

Query: // return the class label for CC1(CO)CCN(c2cc(Nc3ccnc(-c4cnn(S(C)(=O)=O)c4)n3)ncc2C#Cc2cnn(C(F)(F)F)c2)CC1 [Example 268]
Result: H
